System: LG0567-F671-PDC KRAS tumor spheroid viability;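 further: drug exposure lasted seven days after spheroids formed for three days; 100% = DMSO vehicle control viability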
Assay: Anticancer human tumor LG0567-F671-PDC patient-derived lung adenocarcinoma cell line growth inhibition [KRAS2]
Conditions: second compound 0.1 µM; first compound 0.0316 µM; stronger effect = lower value; spheroids with HUVEC and MSC
measuredMetric: viability, T/C

Solved cases below.
>>> obsvalue("CC1COCCN1c1cc(-c2ccnn2C)c2ccnc(-c3ccn[nH]3)c2n1 (stereo unspecified) + CNCc1ccccc1-c1csc(C(C)Nc2nc(C)nc3cc(OC)c(OC)cc23)c1")
"74.4%"
>>> obsvalue("CCNC(=O)CC1N=C(c2ccc(Cl)cc2)c2cc(OC)ccc2-n2c(C)nnc21 (stereo unspecified) + C=CC(=O)N1CCN(c2nc(=O)n(-c3c(C)ccnc3C(C)C)c3nc(-c4c(O)cccc4F)c(F)cc23)C(C)C1")
"35%"
>>> obsvalue("CC(C)n1nc(-c2ccc3oc(N)nc3c2)c2c(N)ncnc21 + C=CC(=O)N1CCN(c2nc(OCC3CCCN3C)nc3c2CCN(c2cccc4cccc(C)c24)C3)CC1CC#N")
"13.7%"
>>> obsvalue("COc1cc(Nc2ncc3c(n2)-c2ccc(Cl)cc2C(c2c(F)cccc2OC)=NC3)ccc1C(=O)O + CC1OCC2(CCN(c3cnc(Sc4ccnc(N)c4Cl)c(N)n3)CC2)C1N")
"58.7%"
>>> obsvalue("CC1OCC2(CCN(c3cnc(Sc4ccnc(N)c4Cl)c(N)n3)CC2)C1N (stereo unspecified) + C=CC(=O)N1CCN(c2nc(OCC3CCCN3C)nc3c2CCN(c2cccc4cccc(C)c24)C3)CC1CC#N")
"24.7%"

Note viability, T/C for the compound shown: COC(=O)c1ccc2c(C(=Nc3ccc(N(C)C(=O)CN4CCN(C)CC4)cc3)c3ccccc3)c(O)[nH]c2c1 + COc1cc2nc(C)nc(NC(C)c3cc(N)cc(C(F)(F)F)c3)c2cc1OC1CCOC1
112%

Note viability, T/C for the compound shown: Cn1ncnc1[C@H]1c2n[nH]c(=O)c3cc(F)cc(c23)N[C@@H]1c1ccc(F)cc1 + CC1OCC2(CCN(c3cnc(Sc4ccnc(N)c4Cl)c(N)n3)CC2)C1N
57.3%

Note viability, T/C for the compound shown: Cn1ncnc1[C@H]1c2n[nH]c(=O)c3cc(F)cc(c23)N[C@@H]1c1ccc(F)cc1 + C=CC(=O)N1CCN(c2nc(=O)n(-c3c(C)ccnc3C(C)C)c3nc(-c4c(O)cccc4F)c(F)cc23)C(C)C1
23.8%

Note viability, T/C for the compound shown: CC(=O)Nc1cccc(-n2c(=O)n(C3CC3)c(=O)c3c(Nc4ccc(I)cc4F)n(C)c(=O)c(C)c32)c1 + CNCc1ccccc1-c1csc(C(C)Nc2nc(C)nc3cc(OC)c(OC)cc23)c1
11.6%
